- Read-out: E-selectin (Homo sapiens)
- Assay Method Text: BSK_3C_Eselectin: BioMAP Diversity Plus: 3C Assay for Eselectin Biomarker Activity (AID 2283015);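 also: cell surface E-selectin protein quantified by ELISA 24 h after dosing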
- Condition Summary: primary human endothelial cells (HUVEC); actives raise or lower the signal
The source made the active and inactive calls. The calls were made as follows: active = hit-call score of the fitted dose curve at least 0.9, where 1 is the maximum; inactive = score below 0.9.
Log the outcome using a class from yes for active, no for inactive

Example cases with answers are listed next.
Molecule	Assigned Category
FC(F)(F)C(F)(F)C(F)(F)C(F)(F)C(F)(F)C(F)(F)C(F)(F)I	no
CCCCNc1ccccc1	no

Which result was noted for this molecule in the test: C=CC(=O)OCC(F)(F)C(F)(F)C(F)(F)C(F)(F)C(F)(F)C(F)(F)C(F)(F)F no

Can you check O=C(O)C(F)(F)C(F)(F)C(F)F next? no

Can you check CCCCC(CC)COP(=O)(O)OCC(CC)CCCC (centres undefined) next? no

Can you check CCCCCCCOC(=O)c1ccccc1C(=O)OCCCCCCC next? no

Can you check C=CC(F)(F)C(F)(F)C(F)(F)C(F)(F)C(F)(F)C(F)(F)C(F)(F)C(F)(F)F next? no

Can you check FC(F)(F)C(F)(F)C(F)(F)C(F)(F)C(F)(F)C(F)(F)CC1CO1 (centres undefined) next? no

Can you check OCC(F)(F)C(F)(F)C(F)(F)F next? no

Can you check O=S(=O)(OCCOC(F)(F)F)C(F)(F)F next? no

Can you check OCC(F)(F)C(F)(F)C(F)(F)C(F)(F)C(F)(F)C(F)(F)F next? no

Can you check FC(F)(F)C(F)(F)C(F)(F)C(F)(F)CCI next? no

Can you check O=S(=O)(O)C(F)(F)C(F)(F)C(F)(F)C(F)(F)C(F)(F)C(F)(F)C(F)(F)F next? no
